- Test system: U-2932
- Assay info: growth inhibition by drug alone (1 - RLU/untreated control) (fraction); higher = stronger inhibition
- Conditions used: 10 nM; time (day): 4; 177Lu-lilotomab satetraxetan 0 ug/ml
Where a name gives a salt, the structure may show the parent alone.
Assay readout: growth inhibition by drug alone
The answer should be a number; do not append a unit.

Example compounds with recorded growth inhibition by drug alone:
1. COc1cc2ncnc(Nc3ccc(F)c(Cl)c3)c2cc1OCCCN1CCOCC1 [Gefitinib (Iressa)] : -0.0185
2. CC[C@@H]1C(=O)N(C)c2cnc(Nc3ccc(C(=O)N[C@H]4CC[C@H](N5CCN(CC6CC6)CC5)CC4)cc3OC)nc2N1C(C)C [BI6727 (Volasertib)] : 0.327

[ask] growth inhibition by drug alone lookup needed for O=C1[C@H](CC[C@H](O)c2ccc(F)cc2)[C@@H](c2ccc(O)cc2)N1c1ccc(F)cc1 [Ezetimibe (Zetia)] , thanks.
[reply] 0.167

[ask] growth inhibition by drug alone lookup needed for N#CC(c1ccnc(NCCc2cccnc2)n1)c1nc2ccccc2s1 (configuration not stated) [JNK Inhibitor V] , thanks.
[reply] -0.056

[ask] growth inhibition by drug alone lookup needed for Cc1ccc(NC(=O)c2ccc(CN3CCN(C)CC3)cc2)cc1Nc1nccc(-c2cccnc2)n1 [Imatinib (Gleevec)] , thanks.
[reply] 0.0795

[ask] growth inhibition by drug alone lookup needed for CC[C@@]1(O)C(=O)OCc2c1cc1n(c2=O)Cc2cc3c(CN(C)C)c(O)ccc3nc2-1 [Topotecan HCl] , thanks.
[reply] 0.494

[ask] growth inhibition by drug alone lookup needed for `COc1cc2ncnc(Nc3ccc(F)c(Cl)c3)c2cc1NC(=O)/C=C/CN1CCCCC1` , thanks.
[reply] -0.0931

* * *

- System: RIVA
- Assay info: growth inhibition by drug plus 177Lu-lilotomab satetraxetan (1 - RLU/untreated control) (fraction); higher = stronger inhibition
- Conditions used: 100 nM; time (day): 5; 177Lu-lilotomab satetraxetan 0.5 ug/ml
growth inhibition by drug plus 177Lu-lilotomab satetraxetan reference
The answer should be a number; do not append a unit.

[ask] growth inhibition by drug plus 177Lu-lilotomab satetraxetan lookup needed for `O=C1C(Cl)=C(NCCN2CCOCC2)C(=O)c2ncccc21` , thanks.
[reply] 0.626

[ask] growth inhibition by drug plus 177Lu-lilotomab satetraxetan lookup needed for `Cn1c(=O)c(F)c(Nc2ccc(I)cc2F)c2c(=O)n(C[C@@H](O)CO)cnc21` , thanks.
[reply] 0.55

[ask] growth inhibition by drug plus 177Lu-lilotomab satetraxetan lookup needed for `O=C(Nc1ccccc1-c1cn2c(CN3CCNCC3)csc2n1)c1cnc2ccccc2n1` , thanks.
[reply] 0.516

[ask] growth inhibition by drug plus 177Lu-lilotomab satetraxetan lookup needed for `CC[C@@H]1C(=O)N(C)c2cnc(Nc3ccc(C(=O)NC4CCN(C)CC4)cc3OC)nc2N1C1CCCC1` , thanks.
[reply] 0.969

[ask] growth inhibition by drug plus 177Lu-lilotomab satetraxetan lookup needed for `Nc1nc(Cl)nc2c1ncn2[C@H]1C[C@H](O)[C@@H](CO)O1` , thanks.
[reply] 0.843

* * *

- Test system: U-2932
- Assay info: growth inhibition by drug plus 177Lu-lilotomab satetraxetan (1 - RLU/untreated control) (fraction); higher = stronger inhibition
- Conditions used: 10 nM; time (day): 5; 177Lu-lilotomab satetraxetan 1 ug/ml
Where a name gives a salt, the structure may show the parent alone.
Label Yes when growth inhibition by drug plus 177Lu-lilotomab satetraxetan is at or above 0.1; anything below gets No.

Observe how each entry below is paired with its result.
1) CNC(=O)c1ccc(N2C(=S)N(c3ccc(C#N)c(C(F)(F)F)c3)C(=O)C2(C)C)cc1F [MDV3100 (Enzalutamide)] : Yes
2) Cc1ccc(Nc2nccc(N(C)c3ccc4c(C)n(C)nc4c3)n2)cc1S(N)(=O)=O : No
3) CCC[C@H](NC(=O)/C(C#N)=C/c1cccc(Br)n1)c1ccccc1 : Yes
4) Nc1cc(C(F)(F)F)c(-c2cc(N3CCOCC3)nc(N3CCOCC3)n2)cn1 : No
5) O=C(O)c1ccc2cc(-c3ccc(O)c(C45CC6CC(CC(C6)C4)C5)c3)ccc2c1 : Yes
6) Nc1ncn([C@H]2C[C@H](O)[C@@H](CO)O2)c(=O)n1 : Yes
7) Cn1cnc(N)c2ncnc1-2 : Yes
8) CN(C)CCOc1ccc(/C(=C(/CCCl)c2ccccc2)c2ccccc2)cc1 [Toremifene Citrate (Fareston, Acapodene)] : Yes
9) COc1ccc(C2CC(c3ccccc3)=NN2c2ccc(S(N)(=O)=O)cc2)cc1 (stereo not given) : No
10) CN(C)CCOc1ccc(-c2nc(-c3ccncc3)c(-c3ccc4c(c3)CC/C4=N\O)[nH]2)cc1 : No

Turning now to a further record.
[ask] Say whether COc1c(C)c2c(c(O)c1C/C=C(\C)CCC(=O)OCCN1CCOCC1)C(=O)OC2 [Mycophenolate mofetil (CellCept)] shows growth inhibition by drug plus 177Lu-lilotomab satetraxetan of 0.1 or more.
[reply] No

* * *

- Test system: RIVA
- Assay info: growth inhibition by drug alone (1 - RLU/untreated control) (fraction); higher = stronger inhibition
- Conditions used: 100 nM; time (day): 4; 177Lu-lilotomab satetraxetan 0 ug/ml
Counter-ions that a name gives are not always drawn.
Label TRUE when growth inhibition by drug alone is at or above -0.05; anything below gets FALSE.

1) O=C(O)C1(C(=O)O)CCC1.[NH2-].[NH2-].[Pt+2] [Carboplatin] : FALSE

[ask] Say whether `CS(=O)(=O)N1CCc2c(-c3cnc(N)nc3)nc(N3CCOCC3)nc21` shows growth inhibition by drug alone of -0.05 or more.
[reply] TRUE

[ask] Say whether Cc1ccc(NC(=O)c2ccc(CN3CCN(C)CC3)cc2)cc1Nc1nccc(-c2cccnc2)n1 [Imatinib (Gleevec)] shows growth inhibition by drug alone of -0.05 or more.
[reply] FALSE

[ask] Say whether CCC(=O)N1CCN(c2ccc(-n3c(=O)ccc4cnc5ccc(-c6cnc7ccccc7c6)cc5c43)cc2C(F)(F)F)CC1 [Torin 1] shows growth inhibition by drug alone of -0.05 or more.
[reply] TRUE

[ask] Say whether `Cc1nc(N)sc1-c1ccnc(Nc2ccc(N3CCOCC3)cc2)n1` shows growth inhibition by drug alone of -0.05 or more.
[reply] FALSE

[ask] Say whether CC[C@@]1(O)C(=O)OCc2c1cc1n(c2=O)Cc2cc3c(CN(C)C)c(O)ccc3nc2-1 [Topotecan HCl] shows growth inhibition by drug alone of -0.05 or more.
[reply] TRUE

[ask] Say whether CC(C=CC(=O)NO)=CC(C)C(=O)c1ccc(N(C)C)cc1 (stereo not given) [Trichostatin A (TSA)] shows growth inhibition by drug alone of -0.05 or more.
[reply] TRUE

[ask] Say whether CCN(CC)CCCC(C)Nc1nc(C)cc(Nc2ccc3nc(C)cc(N)c3c2)n1 (stereo not given) shows growth inhibition by drug alone of -0.05 or more.
[reply] FALSE

[ask] Say whether Nc1cccc2c1C(=O)N(C1CCC(=O)NC1=O)C2=O (stereo not given) [Pomalidomide] shows growth inhibition by drug alone of -0.05 or more.
[reply] FALSE

[ask] Say whether `CN(C)CCCN=c1c2ccccc2n(C)c2[nH]c(=O)n(C)c(=O)c12` shows growth inhibition by drug alone of -0.05 or more.
[reply] TRUE

[ask] Say whether O=C(CCc1ccc(O)cc1)c1c(O)cc(O)cc1O [Phloretin (Dihydronaringenin)] shows growth inhibition by drug alone of -0.05 or more.
[reply] FALSE

[ask] Say whether `CN(C)c1ccccc1CN1CCCN(Cc2ccccc2N(C)C)C1c1ccncc1` shows growth inhibition by drug alone of -0.05 or more.
[reply] FALSE

[ask] Say whether CCC(C)n1ncn(-c2ccc(N3CCN(c4ccc(OCC5COC(Cn6cncn6)(c6ccc(Cl)cc6Cl)O5)cc4)CC3)cc2)c1=O (stereo not given) [Itraconazole (Sporanox)] shows growth inhibition by drug alone of -0.05 or more.
[reply] TRUE

[ask] Say whether `O=C(Cc1ccc(-c2ccc(OCCN3CCOCC3)cc2)cn1)NCc1ccccc1` shows growth inhibition by drug alone of -0.05 or more.
[reply] TRUE

[ask] Say whether `Cc1[nH]c(/C=C2\C(=O)Nc3ccc(S(=O)(=O)N(C)c4cccc(Cl)c4)cc32)c(C)c1C(=O)N1CCN(C)CC1` shows growth inhibition by drug alone of -0.05 or more.
[reply] FALSE

[ask] Say whether O=NN(CCCl)C(=O)NC1CCCCC1 [Lomustine (CeeNU)] shows growth inhibition by drug alone of -0.05 or more.
[reply] FALSE

* * *

- Tested on: RIVA
- Assay info: growth inhibition by drug alone (1 - RLU/untreated control) (fraction); higher = stronger inhibition
- Conditions used: 10 nM; time (day): 6; 177Lu-lilotomab satetraxetan 0 ug/ml
Label 1 when growth inhibition by drug alone is at or above -0.3; anything below gets -1.

Observe how each entry below is paired with its result.
1. COc1cc(Nc2ncc3c(n2)-c2ccc(Cl)cc2C(c2c(F)cccc2OC)=NC3)ccc1C(=O)O : 1
2. CC1=C(/C=C/C(C)=C/C=C/C(C)=C/C(=O)Nc2ccc(O)cc2)C(C)(C)CCC1 [Fenretinide] : -1
3. CCNC(=O)c1noc(-c2cc(C(C)C)c(O)cc2O)c1-c1ccc(CN2CCOCC2)cc1 : 1
4. N#CCNC(=O)c1ccc(-c2ccnc(Nc3ccc(N4CCOCC4)cc3)n2)cc1 : -1
5. Nc1nc(OCc2cc(Br)cs2)c2[nH]cnc2n1 : -1

[ask] Say whether `O=C(/C=C/C#Cc1cccc(NS(=O)(=O)c2ccccc2)c1)NO` shows growth inhibition by drug alone of -0.3 or more.
[reply] 1

[ask] Say whether `O=C(NCCCNc1nc(Nc2cccc(NC(=O)N3CCCC3)c2)ncc1I)c1cccs1` shows growth inhibition by drug alone of -0.3 or more.
[reply] 1

[ask] Say whether COc1nc(C)cnc1NS(=O)(=O)c1cccnc1-c1ccc(-c2nnco2)cc1 [Zibotentan (ZD4054)] shows growth inhibition by drug alone of -0.3 or more.
[reply] 1
